# assayProcedure: kinetic aqueous solubility (Method A)
# Type: physicochemical
# conditions: 0.1 M HCl, pH 1, kinetic, 0.1 M HCl (pH 1), 20 °C; read-out: aq solubility pH 1
metricName: solubility at 15 min (µg/mL)
Numbers only, in µg/mL.

compound	unitsLabel	solubility at 15 min
O=[N+]([O-])c1cn2c(n1)OC(COc1ccc(-c3ccc(F)cc3F)cn1)CC2 (centres unmarked)	µg/mL	1.5

// next item, solubility at 15 min requested
Given the compound O=[N+]([O-])c1cn2c(n1)OC(COc1cccc(-c3ccc(F)cc3)n1)CC2 (centres unmarked) , what is its reported solubility at 15 min?
0.56

====

# Tested on: M. tb, strain H37Rv
# assayProcedure: LORA minimum inhibitory concentration assay (hypoxic)
# Type: cell-based
# conditions: Mycobacterium tuberculosis
metricName: MIC (µM)
Give bare numbers, in µM.

compound	MIC (µM)
CC1(COc2ccc(-c3ccc(F)nc3)cc2)CCn2cc([N+](=O)[O-])nc2O1 (centres unmarked)	2.7
CC1(COc2cccc(-c3ccc(F)nc3F)n2)CCn2cc([N+](=O)[O-])nc2O1 (centres unmarked)	7.9
CC1(COc2cccc(-c3ccc(F)nc3)n2)CCn2cc([N+](=O)[O-])nc2O1 (centres unmarked)	7.8

// next item, MIC requested
Form: Entry = CC1(COc2ncc(-c3ccc(F)nc3)cn2)CCn2cc([N+](=O)[O-])nc2O1 (centres unmarked) | System = M. tb, strain H37Rv | MIC = ____
54

====

# Tested on: M. tb, strain H37Rv
# assayProcedure: MABA minimum inhibitory concentration assay (aerobic)
# Format: cell-based, Mycobacterium tuberculosis
# conditions: Mycobacterium tuberculosis, H37RV, aerobic; read-out: MIC MABA
Kindly supply the reported MIC values for the records listed here.
Numbers only, in µM.

Worked cases, MIC given:
compound	unitsLabel	quantitativeResult
CC1(COc2ccc(-c3ccc(F)cc3)cc2)CCn2cc([N+](=O)[O-])nc2O1 (centres unmarked) [compound 52]	µM	0.085
CC1(CN2CCC(c3ccc(F)cc3)CC2)CCn2cc([N+](=O)[O-])nc2O1 (centres unmarked) [compound 149]	µM	0.22
O=[N+]([O-])c1cn2c(n1)OC(COc1ncc(-c3ccc(F)nc3)cn1)CC2 (centres unmarked) [compound 132]	µM	0.24
O=[N+]([O-])c1cn2c(n1)OC(COc1ccc(-c3ccc(F)cc3)nn1)CC2 (centres unmarked) [compound 123]	µM	0.35
O=[N+]([O-])c1cn2c(n1)OC(COc1cnc(-c3ccc(F)cc3)nc1)CC2 (centres unmarked) [compound 139]	µM	0.27
CC1(CN2CCC(Oc3ccc(F)cc3)CC2)CCn2cc([N+](=O)[O-])nc2O1 (centres unmarked) [compound 154]	µM	0.23

// next item, MIC requested
Given the compound CC1(COc2ncc(-c3ccc(F)nc3)cn2)CCn2cc([N+](=O)[O-])nc2O1 (centres unmarked) [compound 133] , what is its reported MIC?
23

====

# Tested on: Trypanosoma cruzi
# assayProcedure: T. cruzi growth inhibition on MRC-5 cells (LMPH)
# Assay type: cell-based
# conditions: MRC5
metricName: IC50 (nM)
Answers are plain numbers, in nM.

Worked cases, IC50 given:
compound	IC50, nM
CC1(CN2CCN(C(=O)c3ccc(F)cc3)CC2)CCn2cc([N+](=O)[O-])nc2O1 (stereo not shown) [compound 159]	2800
CC1(COc2ccc(-c3ccc(F)cn3)cn2)CCn2cc([N+](=O)[O-])nc2O1 (stereo not shown) [compound 106]	250

Your task in this section: give IC50 for each listed record.
1. O=[N+]([O-])c1cn2c(n1)OC(COc1ccc(-c3ccc(F)nc3F)nc1)CC2 (stereo not shown) [compound 114]
2. O=[N+]([O-])c1cn2c(n1)OC(COCc1ccc(-c3ccc(OC(F)(F)F)cc3)cc1)CC2 (stereo not shown) [compound 28]
3. CC1(CN2CCC(c3ccc(F)cc3)CC2)CCn2cc([N+](=O)[O-])nc2O1 (stereo not shown) [compound 149]
4. CC1(COc2cccc(-c3ccc(F)nc3)n2)CCn2cc([N+](=O)[O-])nc2O1 (stereo not shown) [compound 118]

1: 350; 2: 2100; 3: 870; 4: 520

Your task in this section: give IC50 for each listed record.
1. O=[N+]([O-])c1cn2c(n1)OC(COc1ccc(-c3ccc(F)nc3F)cn1)CC2 (stereo not shown) [compound 109]
2. O=[N+]([O-])c1cn2c(n1)OC(COc1ccc(-c3ccc(F)cn3)cn1)CC2 (stereo not shown) [compound 105]
3. CC1(COc2ccc(-c3ccc(OC(F)(F)F)cc3)nc2)CCn2cc([N+](=O)[O-])nc2O1 (stereo not shown) [compound 96]
4. CC1(COc2ccc(-c3ccc(F)cc3F)cn2)CCn2cc([N+](=O)[O-])nc2O1 (stereo not shown) [compound 63]
5. O=[N+]([O-])c1cn2c(n1)OC(COc1ccc(-c3ccc(OC(F)(F)F)cc3)cn1)CC2 (stereo not shown) [compound 64]
6. O=[N+]([O-])c1cn2c(n1)OC(COc1cccc(-c3ccc(F)cc3)n1)CC2 (stereo not shown) [compound 99]
7. CC1(COc2ccc(-c3ccc(F)nc3F)cn2)CCn2cc([N+](=O)[O-])nc2O1 (stereo not shown) [compound 110]

290
340
250
210
120
160
430

Cited source: paper PMC7722354
